From: patent US20190144529A1

Target: T1, human serum albumin (human, UniProt P02768 25-609)
T1 construct: mature; Bought purified serum albumin; also called HSA; Human albumin
Experiment: SPR, Fab captured; albumin taken as HSA;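 further: captured antibody exposed to albumin for 3 min association, then dissociation followed, with blank flow-cell reference and buffer-blank injections subtracted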
readout: koff
Answer with the number, then the unit.

Provide the reported koff of each entry below, same order.
1. CA645 gL30gH5 Fab (Fab, V domains shown, Fab: human gamma1 CH1, human kappa (Km3); Kabat numbering) VH: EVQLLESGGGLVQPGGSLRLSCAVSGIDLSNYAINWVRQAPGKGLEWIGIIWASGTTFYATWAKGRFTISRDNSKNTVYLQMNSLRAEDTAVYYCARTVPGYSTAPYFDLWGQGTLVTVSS VL: DIQMTQSPSSVSASVGDRVTITCQSSPSVWSNFLSWYQQKPGKAPKLLIYEASKLTSGVPSRFSGSGIGTDFTLTISSLQPEDFATYYCGGGYSSISDTTFGGGTKVEIK
2. CA645 gL33gH5 Fab (Fab, V domains shown, Fab: human gamma1 CH1, human kappa (Km3); Kabat numbering) VH: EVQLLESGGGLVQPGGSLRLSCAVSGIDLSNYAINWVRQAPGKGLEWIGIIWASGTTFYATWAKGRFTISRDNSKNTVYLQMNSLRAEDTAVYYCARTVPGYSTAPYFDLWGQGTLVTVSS VL: DIQMTQSPSSVSASVGDRVTITCQSSPSVWSNFLSWYQQKPGKAPKLLIYEASKLTSGVPSRFSGSGEGTDFTLTISSLQPEDFATYYCGGGYSSISDTTFGGGTKVEIK
3. CA645 gL32gH5 Fab (Fab, V domains shown, Fab: human gamma1 CH1, human kappa (Km3); Kabat numbering) VH: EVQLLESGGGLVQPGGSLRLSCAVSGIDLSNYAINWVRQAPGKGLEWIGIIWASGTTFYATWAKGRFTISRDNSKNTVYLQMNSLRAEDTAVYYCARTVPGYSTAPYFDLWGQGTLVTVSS VL: DIQMTQSPSSVSASVGDRVTITCQSSPSVWSNFLSWYQQKPGKAPKLLIYEASKLTSGVPSRFSGSGQGTDFTLTISSLQPEDFATYYCGGGYSSISDTTFGGGTKVEIK

1: 9.4e-05 s⁻¹; 2: 0.000179 s⁻¹; 3: 0.000143 s⁻¹

Dear colleague, could you send me koff for each of the items below? Thanks.
1. CA645 gL11gH5 Fab (Fab, V domains shown, Fab: human gamma1 CH1, human kappa (Km3); Kabat numbering) VH: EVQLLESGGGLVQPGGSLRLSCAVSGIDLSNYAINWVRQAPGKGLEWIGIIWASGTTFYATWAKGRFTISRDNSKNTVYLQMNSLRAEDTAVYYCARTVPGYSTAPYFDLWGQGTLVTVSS VL: DIQMTQSPSSVSASVGDRVTITCQSSPNVWSNFLSWYQQKPGKAPKLLIYEASKLTSGVPSRFSGSGSGTDFTLTISSLQPEDFATYYCGGGYSSISDTTFGGGTKVEIK
2. CA645 gL4gH46 Fab (Fab, V domains shown, Fab: human gamma1 CH1, human kappa (Km3); Kabat numbering) VH: EVQLLESGGGLVQPGGSLRLSCAVSGIDLSNYAINWVRQAPGKGLEWIGIIWASGTTFYATWAKGRFTISRDNSKNTVYLQMNSLRAEDTAVYYCARTYPGYSTAPYFDLWGQGTLVTVSS VL: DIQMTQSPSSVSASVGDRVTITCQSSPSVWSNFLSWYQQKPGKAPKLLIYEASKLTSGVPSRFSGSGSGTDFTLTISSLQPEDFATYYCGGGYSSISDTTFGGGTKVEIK

["0.000249 s⁻¹", "0.000184 s⁻¹"]
